Reference source: patent US6750228B1

# target system: MMP-2 (Homo sapiens)
# Construct: made in house; provided by Dr. Gregory Goldberg, Washington University
# Sequence (P08253 110-660): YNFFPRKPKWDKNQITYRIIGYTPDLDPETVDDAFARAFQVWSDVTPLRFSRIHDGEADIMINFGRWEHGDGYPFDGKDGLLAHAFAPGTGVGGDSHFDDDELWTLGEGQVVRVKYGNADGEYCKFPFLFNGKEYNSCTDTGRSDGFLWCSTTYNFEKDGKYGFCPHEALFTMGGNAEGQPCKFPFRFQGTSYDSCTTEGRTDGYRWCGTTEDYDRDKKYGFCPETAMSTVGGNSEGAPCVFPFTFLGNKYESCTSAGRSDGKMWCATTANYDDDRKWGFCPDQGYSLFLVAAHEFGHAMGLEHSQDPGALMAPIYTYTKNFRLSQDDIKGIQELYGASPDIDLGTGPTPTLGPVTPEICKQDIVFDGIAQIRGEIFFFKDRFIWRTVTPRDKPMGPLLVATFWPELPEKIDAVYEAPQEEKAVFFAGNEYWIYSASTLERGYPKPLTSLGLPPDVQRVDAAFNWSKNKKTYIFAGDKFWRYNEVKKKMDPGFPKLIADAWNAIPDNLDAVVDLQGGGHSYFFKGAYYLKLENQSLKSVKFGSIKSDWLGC
# procedure text: biochemical
# experimental context: recombinant human MMP-2, MCA peptide substrate 4 μM, pH 7.5, room temperature; read-out: MMP-2 IC50
# Method: The compounds prepared in the manner described in the Examples above were assayed for activity by an in vitro assay. […] Briefly, 4-aminophenylmercuric acetate (APMA) or trypsin-activated MMPs were incubated with various concentrations of the inhibitor compound at room temperature for 5 minutes. […] Inhibition was measured as a reduction in fluorescent intensity as a function of inhibitor concentration, using a Perkin Elmer L550 plate reader. The IC50 values were calculated from those values. […]
pIC50: −log10 of the molar value.
measure: pIC50

Worked examples, 3 molecules total:
{"molecule": "O=C(Nc1cccc(C(F)(F)F)c1)OC1CCN(c2ccc(S(=O)(=O)C3(C(=O)NO)CCOCC3)cc2)CC1 [Example 188]", "target system": "MMP-2 (Homo sapiens)", "measure": "pIC50", "measured value": 6.63}
{"molecule": "C=CCN(CC=C)C(=O)C1CCN(c2ccc(S(=O)(=O)C3(C(=O)NO)CCOCC3)cc2)CC1 [Example 48]", "target system": "MMP-2 (Homo sapiens)", "measure": "pIC50", "measured value": 5.49}
{"molecule": "O=C(NO)C1(S(=O)(=O)c2ccc(N3CCN(c4ccc(C(F)(F)F)cc4)CC3)cc2)CCN(C2CC2)CC1 [Example 356]", "target system": "MMP-2 (Homo sapiens)", "measure": "pIC50", "measured value": 7.49}

[I] COCC1CCCN(c2ccc(S(=O)(=O)C3(C(=O)NO)CCOCC3)cc2)C1 (stereo not shown) [Example 525]
[II] CCCN(CC1CC1)C(=O)C1CCN(c2ccc(S(=O)(=O)C3(C(=O)NO)CCOCC3)cc2)CC1 [Example 35]
Task: # argmax over pIC50 for candidates I and II // return label of chosen record
Result: I
(I: 6.15, II: 5.05)
